EXPERIMENT: label from the status in PepcDB records;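 also: failed if final PepcDB status was selected cloned or expressed and not failed if soluble or beyond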

{"columns": ["ITEM_SEQUENCE", "protein production"],
 "data": [
  ["MPTLQLFIYIIGFLFLMYMAWSLWTEKPSNIEEIEPMSAKKQILFALSVSLLNPHAIMDTVGVIGTSASVYDGYDKVVFSLATISVSWIWFVFLAILGRITGKIDKSGKYIVILNKVSSVIVIIVGLIILKNIVGILS", "failed"],
  ["MKKALISTLFGVSLAFAKPYTIDKANSSVWFEVKHFTFNETRGAFDNFDGKIDLEPNTKMLSVFEGNIDVKSVNTRDRKRDNHLKTADFFDVVKYPKGSFKMTKYEDGKIYGDLTLRGVTKPVVLEAKIQAPLQNPMNKKEFMVLQAEGKINRKDFGIGKTFSDAVVGDEVKIELKLEAYAQ", "failed"],
  ["MYADYPYYADHYGGDIPEREYPSAERRAEAYIRKLTYVRGNIFAVENTAVKDAVCAVADVYYSCKKKQEAGTVKSESNDGYSVSYAVEQADGQTMEELIRKKAYEAASTYLLPTGWLSRKVGCCHADECDDYNL", "failed"]
]}

----------
EXPERIMENT: label from the status in PepcDB records
PROPERTY_MEASURED: protein production

{"columns": ["ITEM_SEQUENCE", "RECORDED_RESULT"],
 "data": [
  ["MNHRDKQIDSGSGSGENRRTYDCDICKRGFTNPQALGGHNNIHRRERERYPSSSSSSHSFPFSLPLPSQSPSSSTNFTNPPPYFPTIESYLHQGSQPPINPSHNTQYFGSSSSSRGGGRFAQGASHDLNLSLGLGSMNEDDDTHRSPPETGGSQPQDGDLDLDLRLGGHRHH", "failed"],
  ["MKLGVNLCFAVKRWLEPDRLAGLVRDDLGLEYVQYTYDLTDPWWPDIERDRRAIAYAKAFRKAGLTIESTFGGLASYTYNHFLAPTLELQSLGYQHLKRAIDMTAAMEVPATGMPFGSYSAADALNPARREEIYAIARDMWIELAAYAKRQGLSMLYVEPVPLATEFPSSAADAARLMADLDGRTEIPVRLLVDWGHALFEPLFGPEADMDHWMDLCQPWIAAYHIQQTDGQLDRHWSFTQPGVVTPQRLQDFWDKYALTDQTFFAEILYPFEARDEDVLADMIASVKALKAASPAA", "not failed"],
  ["MSRQIFYMPFSLRFLFLLIIITIFGLGSLFLGVIVSAFMKIGFSAEDALLILFLSLLGSGINIPLTTLKSDIPVVKDNYIKFFGISYRIPTRQIVRNETLLAINVGGAVIPVLISAYLLTQFPSSLLLAGAGVAIVAIVTHSVARPIKGVGIATPALIPPLTSVLSAVLLTSIVHIPGCPAEPCRVIIAYTGGVLGTLIGADLLNLGKIKNLGAPVASIGGAGTFDGIFLSGFIALLLI", "failed"],
  ["MPPPTASTPDDSADPGPDFADVPPTDLVKVGFIFRPHGLDGELKIDPSATDDPARFEVLPTVFVGPHPRRVVRHDIASVRYQKTKRGITVILGLDGIVDRDDAEAVAKMDVFATEAALGLEDDELFADDLVGWTVVTEEGAVQGTVADFMEMPAQDLFVVRTPEDTEAMIPAIDDFIIEIDEEAERIVVRPIDGLMDALEHHHHHH", "failed"],
  ["MTIVGLKKTYLGLIDKKTGKIIAGPEGLTTDGLYMSNPKDLGTASANITNIAAAGTQKFGDNGLVDVVSSKSFPQVAAVWNNLPFDIKAKIKGEVSDKKGGYVQSQDLPQVALIIESELIDRSHSIFYAFGNGHMTETALNIQTDNAAQNRVEDALTYQSLAFEAWNNQGMKTFNSADSGFDKTAMLKEVMGGYAASGLGVLEHHHHHH", "failed"],
  ["MSRFHWLWPWRSSTSLRVTTVLRLGADQPAIVAAARASQACTRSPRTTRDAMAMHTNGSVFAGWDGSVIQAQQLQHQLAQRVLLHDEVSATPQLLAGFDVGFEDDGQTTRAAAVLLDAHTLLPLETHVARAPTSMPYVPGLLSFRELPALLQALARLSRTPDLVFIDGQGIAHPRRLGIAAHFGVVTGLPCIGIAKQRLAGSFAEPGPERGDHTPILLGGAQIGWALRSKPRCNPLIVSPGHCVSMQGALGWTLRTLRSYRLPEPTRLADRLASRRGKMPALAADTPLLF", "failed"],
  ["MIQLRAISRGMICGLLLSQLWSCSSTPLEPTAIEVDALFDDSLFKPVTNIPSVEDIFSLPSSVAVDVKRTYDRYAISTKNPLAVHEWLASYINANQSNGHSDFRYQDNLTQTASETFEQRAGNCMSLVVMTSALADIFNIGTEFQDIAIEPVWDKQGDFYLINGHVNLRLLPAQSVHTVYVSTHAILVDFMPERALRGLAKVQINRQTLTAMFYNNMAAESLVEGDLDHAYALVKAGLKSGHFSPALNTLAVIYRHKGDEKRAEQVYRYALKFDPDDMTTLFNLAVILDNQGRLEEWAQIHKKLELARIRNPYYYYDMGEQAYDEHQYREALAWYQRAVDKADYRHEFFFGLSRTYWALGDEKRAKQNMEKALALSREAADKHRCQAKLQAMRQH", "failed"],
  ["MERNVTLDFVRGVAILGILLLNISAFGLPKAAYLNPAWYDAITPQDAWTWAFLDLIGQVKFLTLFALLFGAGLQMLLPRGRRWIQSRLTLLVLLGFIHGLLFWDGDILLAYGLVGLGVLLLLGLISDSQTSRAWTPDASAILYEKYWKLHGGVEAISNRADGVGNSLLALGAQYGWQLAGMMLIGAALMRSGWLKGQFSLRHYRRTGFVLVAIGVTINLPAIALQWQLDWAYRWCAFLLQMPRELSAPFQAIGYASLFYGFWPQLSRFKLVLAIACVGRMALTNYLLQTLICTTLFYHLGLFMHFDRLELLAFVIPVWLANILFSVIWLRYFRQGPVEWLWRQLTLRAAGPAISKTSR", "failed"],
  ["MLLDKIQNLIIQSDISIFQSMKKMDEEKVKLLFVFRGDCFVGILTIGDIQRAIIKQNDTSMQINNILDQNKVFAYKGESLEIIKNKMIHLRAECMPILDSKGELVDVLFWKDLFIDEVRVDDRKIDLPVVIMAGGKGTRLKPLTNVIPKPLIPIGDKTILEAILDQFESIGCSKFYMSVNYKYDILKFYLAQLDHKYDIRFFKEDKPLGTIGSVSLLKDKISTPFFVSNCDIIIDQDYRDVYDYHINNSNDLTIVTAVKRTRIPYGVIETIENGLMTELIEKPEFTYMINSGVYILQPELINEIPENELFHITHLMEKVKSRGGKIGCFPVSEKSWTDIGEWNEYLKLLGILEHHHHHH", "failed"],
  ["MNINLSVPYAAEGPGPTINTLGQVDGEDVVSISSADLDETEGNLNMTTVSVRSGMTLSQVISRWLFTDDTIVPIEQVFPPGQSTEEVEESNRTAFISSESSATIAAMNYLNIPVEVEVAEVLTDSAATGIFEPGDKLLSIDGTAISTPGDAQTIVRSKAPGDEITISYERNDAESQATITLREHPDDSSVALLGISMLSVPSSAIEVDYNLEDIGGPSAGMMFSLAVVDKLSPGALNGGKFVAGTGTIAEDGSVGPIGGIAHKVRAAEDAGAEVFLSPADNCAEAMSAKPQDMTILKVDSLSQAIDQMAAYNEGLEHHHHHH", "not failed"]
]}

----------
EXPERIMENT: label from the status in PepcDB records
PROPERTY_MEASURED: protein production

{"columns": ["ITEM_SEQUENCE", "PROPERTY_MEASURED", "RECORDED_RESULT"],
 "data": [
  ["MGNMISAVVAAAGRGSRMMRDMAELGLEPVHKLLLPLNGVTVIEATVKAVLSAGVDECIVVTGHRAGEVEEALSGMDVRVVRNDPVDVPLSASLLRGVRAAGGDIILCAAGDQPAVSPATLRRIAEHADGSTVSILARGESGWLDNARGIGMPLAAGADLLRDYLPLGDGNINPLLWMMLEDGVRLYGVEASRPIELVNINHYSDYLRIRDHFLRTNADGN", "protein production", "failed"],
  ["CKLCLGEYPVEQMTTIAQCQCIFCTLCLKQYVELLIKEGLETAISCPDAACPKQGHLQENEIECMVAAEIMQRYKKLQFER", "protein production", "not failed"],
  ["AIQVFDVTAVNISATSLTLIWKVSDNESSSNYTYKIHVAGETDSSNLNVSEPRAVIPGLRSSTFYNITVCPVLGDIEGTPGFLQVHTPPVP", "protein production", "not failed"],
  ["LLLLHGFTSHPVLTLGPLSERLKEAGWEVRQPALPGHGTRPEDLLKVRFQDWLLAAEEAYLELPEPRGVVGLSMGGLLAAHLAARHPTKALVALAPAFALKNPLAPYLHWLIPRFPGPPSIEDPELRKRNPNYPYFPTRAVLELLALMRKTPEVLPRVKARALVVEAGKDRVVKGVDRYFALLGSPRKDHLVFPESGHDLLLDRDREEVARAVRDWL", "protein production", "failed"],
  ["MQNTIIQKAVNKDLNSILEITKDALNAMKTMNFHQWDENYPNEIVFQEDIQAQELYVFKENDEILGFICINEKFKPEFYKQVIFNKNYDDKAFYLHRLAVKQNAKGKGVAQKLLNFCENFALENHKASLRADTHSKNFPMNSLFKKLDFNFCGNFDIPNYQDPFLAYEKILNQKAF", "protein production", "not failed"]
]}
